The reported numbers originate from PubChem BioAssay (Tox21).

ASSAY_EXPLANATION: qHTS assay to identify small molecule agonists of the vitamin D receptor (VDR) signaling pathway - cell viability counter screen (AID 743224); further: nearly all actives have a fitted effect of over 50% in size
CONDITION_CONTEXT: VDR-bla HEK293T viability, CellTiter-Glo luminescence, 16 h; series mostly up to 62.6 µM
Excerpt: U.S. Tox21 Program National Center for Advancing Translational Sciences [NCATS] NIH Chemical Genomics Center [NCGC] U.S. Environmental Protection Agency [EPA] National Institutes of Environmental Health Sciences [NIEHS] National Toxicology Program [NTP] U.S. Food and Drug Administration [FDA] Tox21 Assay Overview: The vitamin D receptor (VDR), a member of nuclear hormone receptor superfamily, plays a critical role in calcium homeostasis and bone metabolism. […]
Results filed as inconclusive are left out. The source made the active and inactive calls. The call rests on the fitted dose curve; in most records, active means well fitted cell-killing curve with a large enough effect in the repeat runs; inconclusive means weak or mixed curves, or effect the other way; inactive means no such curve, though single readings can be large or run the other way.
Give your call using only these classes: active, inactive

Q. Could you kindly confirm the outcome this assay logged for `CCCOC(=O)c1ccc(N)cc1` ?
A. inactive

Q. Could you kindly confirm the outcome this assay logged for `O=C(C(=O)c1ccccc1)c1ccccc1` ?
A. inactive

Q. Could you kindly confirm the outcome this assay logged for `O=C(O)c1ccccc1NCCc1ccccc1` ?
A. inactive

Q. Could you kindly confirm the outcome this assay logged for `Cc1cc(O)c(C(C)C)cc1Cl` ?
A. inactive

Q. Could you kindly confirm the outcome this assay logged for `CCCCCCOC(=O)CCCCCCCC(=O)OCCCCCC` ?
A. inactive

Q. Could you kindly confirm the outcome this assay logged for `CC[C@H](NC(=O)c1cc(F)ccc1NS(=O)(=O)c1cccc2cccnc12)c1ccccc1` ?
A. inactive

Q. Could you kindly confirm the outcome this assay logged for `CCCCCC=CCC=CCCCCCCCC(=O)OCC` ?
A. active

Q. Could you kindly confirm the outcome this assay logged for `O=Cc1c(Cl)cccc1Cl` ?
A. inactive

Q. Could you kindly confirm the outcome this assay logged for `NC(=O)Nc1ccc(Cl)c(Cl)c1` ?
A. inactive

Q. Could you kindly confirm the outcome this assay logged for `CC[C@@H]([C@H](C)O)n1ncn(-c2ccc(N3CCN(c4ccc(OC[C@@H]5CO[C@@](Cn6cncn6)(c6ccc(F)cc6F)C5)cc4)CC3)cc2)c1=O` ?
A. inactive

Q. Could you kindly confirm the outcome this assay logged for O=C(O)C(Cc1cc(I)c(O)c(I)c1)c1ccccc1 (centres undefined) ?
A. inactive

Q. Could you kindly confirm the outcome this assay logged for `C=CC(C)=CCC=C(C)C` ?
A. inactive

Q. Could you kindly confirm the outcome this assay logged for `CC(C)CCCCCOC(=O)CCCCC(=O)OCCCCCC(C)C` ?
A. inactive

Q. Could you kindly confirm the outcome this assay logged for `CN1CCN(c2c(F)cc3c(=O)c(C(=O)O)cn4c3c2OCN4C)CC1` ?
A. inactive

Q. Could you kindly confirm the outcome this assay logged for `CC(=O)[C@H]1CC[C@H]2[C@@H]3C=CC4=CC(=O)CC[C@@]4(C)[C@@H]3CC[C@]12C` ?
A. inactive

Q. Could you kindly confirm the outcome this assay logged for `Nc1nc(Cl)nc2c1ncn2[C@@H]1O[C@H](CO)[C@@H](O)[C@@H]1F` ?
A. inactive

Q. Could you kindly confirm the outcome this assay logged for `CCCCCCCCCCCC(=O)[O][Sn]([CH2]CCC)([CH2]CCC)[O]C(=O)CCCCCCCCCCC` ?
A. active

Q. Could you kindly confirm the outcome this assay logged for CC(C)OCC1CO1 (centres undefined) ?
A. inactive

Q. Could you kindly confirm the outcome this assay logged for `NC(=O)Cn1c(=O)cc(CCN2CCN(c3nccc4sccc34)CC2)c2ccc(F)cc21` ?
A. inactive

Q. Could you kindly confirm the outcome this assay logged for `C[C@]12CCC(=O)C=C1C=C[C@@H]1[C@@H]2CC[C@@]2(C)[C@H]1CC[C@@]21CCC(=O)O1` ?
A. inactive

Q. Could you kindly confirm the outcome this assay logged for `CCCCCCOC(=O)C(C)C` ?
A. inactive

Q. Could you kindly confirm the outcome this assay logged for `N#C[C@@H]1C[C@@H]2C[C@@H]2N1C(=O)[C@@H](N)C12CC3CC(CC(O)(C3)C1)C2` ?
A. inactive

Q. Could you kindly confirm the outcome this assay logged for `CCN(CC)CCNC(=O)c1ccc(NC(C)=O)cc1` ?
A. inactive

Q. Could you kindly confirm the outcome this assay logged for CN1C(=O)CC(C)(c2ccccc2)C1=O (centres undefined) ?
A. inactive
